- test_method_notes: in vitro
- measurement_parameters: Dunkin Hartley, guinea pig, plasma
Entries and their fraction unbound at 5 h values follow.
When you answer, write just the number.

{"columns": ["structure_smiles", "endpoint_label", "readout_value"],
 "data": [
  ["Cc1nn(C2CCCCC2)c(N)c1-c1ccccc1", "fraction unbound at 5 h", 0.105],
  ["CCCN(c1cccnc1)P(=O)(c1ccccc1)c1ccccc1", "fraction unbound at 5 h", 0.309],
  ["COCCN(c1cccnc1)P(=O)(c1ccccc1)c1ccccc1", "fraction unbound at 5 h", 0.58],
  ["CCCN(CCNCCc1ccc(O)c2[nH]c(=O)sc12)C(=O)CCOCCc1ccccc1", "fraction unbound at 5 h", 0.11],
  ["C[C@@H](NC(=O)Cc1ccc(C2CC2)cc1)c1ccc(OCC(F)(F)F)cn1", "fraction unbound at 5 h", 0.0006]
]}

Q: Entry CCS(=O)(=O)c1ccc(-c2cc(C(F)(F)F)ccc2OCC(=O)O)c(C)c1 has what fraction unbound at 5 h?
Result: 0.0928

Q: Thanks! And CCCN(c1cccc(S(C)(=O)=O)c1)P(=O)(c1ccccc1)c1ccccc1 ?
Result: 0.289

Q: Same for COc1ccc2c(C)cc(N[C@H]3CC[C@H](NCc4cn(C)c5cccnc45)C3)nc2c1
Result: 0.0854

Data origin: ChEMBL document CHEMBL3301361
